Source listed as patent EP4659811A1.

Molecular target: VP1 capsid protein on BKV pseudovirions of genotype II (GBR-12; AB263920) (BK virus genotype II (GBR-12))
Test: cell-based or functional assay

{"columns": ["BINDER", "READOUT QUALIFIER", "Neutralization PSV IC50 (ng/mL)"],
 "data": [
  ["antibody G5P6 (antibody, V domains shown) VH: QVQLVQSGAEVKKPGASVKVSCKASGYTFTTHIIHWVRQAPGQRLEWMGWINAGNGNTKYSEKFQGRVTLTRDTSASTAYMELSSLRSEDTAIYYCAREDQWLGRSPLEYWGQGTLVTVSS VL: EIVLTQSPGTLSLSPGERATLSCRASQSVSSSYLAWYQHKPGQAPRLLIYGASSRATGIPDRFSGSGSGTDFTLTVSRLEPEDFAVYYCQQYGNSYPWTFGQGTKVEIK", "=", 8.2],
  ["antibody G11P1 (antibody, V domains shown) VH: EVQLVESGGGLVQPGGSLRLSCAASGFTFRSYSMDWVRQAPGKGLEWVSYISGSSNQKYYTDSVRGRFTISRDNAKNSLFLQMNSLRAEDSAVYYCAREDDILTPLYGMDVWGPGTTVTVSS VL: EIVLTQSPDTLSLSPGARATLSCRASQSVRSNYLAWYQQKPGQAPRLLIYGASSRATAIPDRFSGSGSGTDFTLTITRLEPEDFAVYYCHQYASSPRTFGQGTKVEIK", "=", 0.8],
  ["antibody B5P4 (antibody, V domains shown) VH: QVQLVQSGAEVKKPGSSVKVSCKASGGRFSRYGSSWVRQAPGQGLEWMGGIIPLLGTANYAQKFQDRVSITADESTSTVYMHLSSLRSEDTAVYYCATARREYDRPGAEYFIQWGQGTLVTVSS VL: EIVMTQSPATLSVSPGERATLSCRASQSVSTNLAWYQQKPGQAPRLLIYDAFLRATGIPARFSGSGSGTEFTLTISSLQPEDFAVYYCQQYNYWPPLTFGGGTKVEIK", ">", 50000]
]}
